measurement_target: Sodium-dependent dopamine transporter (Rattus norvegicus, UniProt P23977)
Sequence (P23977 whole entry): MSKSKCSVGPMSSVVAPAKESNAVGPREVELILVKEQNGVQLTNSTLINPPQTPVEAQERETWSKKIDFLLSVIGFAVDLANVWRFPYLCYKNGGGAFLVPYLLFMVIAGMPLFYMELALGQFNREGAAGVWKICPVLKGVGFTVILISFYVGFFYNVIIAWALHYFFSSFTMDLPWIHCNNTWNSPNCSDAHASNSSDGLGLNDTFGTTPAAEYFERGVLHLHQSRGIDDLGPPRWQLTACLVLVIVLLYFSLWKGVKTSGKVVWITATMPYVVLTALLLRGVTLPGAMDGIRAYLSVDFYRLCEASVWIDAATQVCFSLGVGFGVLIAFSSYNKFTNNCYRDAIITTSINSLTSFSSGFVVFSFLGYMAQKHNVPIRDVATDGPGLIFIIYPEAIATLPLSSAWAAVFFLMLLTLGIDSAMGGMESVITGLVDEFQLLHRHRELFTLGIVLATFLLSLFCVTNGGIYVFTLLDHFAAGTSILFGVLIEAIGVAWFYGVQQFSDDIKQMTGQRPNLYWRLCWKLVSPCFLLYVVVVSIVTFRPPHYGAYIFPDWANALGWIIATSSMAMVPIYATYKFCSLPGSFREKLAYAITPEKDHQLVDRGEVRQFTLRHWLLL
assay_remarks: Inhibitory constant against reuptake of [3H]-DA at dopamine transporter of rat striatal membranes
property_name: Ki (nM)
The reply should contain only the number, in nM.

Examples with their reported Ki follow.
Find the recorded Ki belonging to COC(=O)C1C2CC3CCC1N3C/C2=C\c1ccc(-c2ccc(SC)cc2)cc1 (centres undefined) and report it.
1050

Another compound to look at: COC(=O)C1C2CC3CCC1N3C/C2=C\C#Cc1ccc(F)c(F)c1 (centres undefined)
3150

New cases:
Entry COC(=O)C1C2CC3CCC1N3C/C2=C\c1ccc(-c2ccccc2OC)cc1 (centres undefined) : reported Ki = ?
787
